Below, each of the compounds is paired with its reported viability at 48 h value.
Experiment: Cytotoxicity against human MCF7 cells assessed as cell viability up to 100 uM after 48 hrs by MTT assay
Format: cell-based
Conditions: read-out: Activity
Unit % implied. Number only.

[
  {
    "mol": "C/C(=N\\NC(=O)COc1cccc2cccnc12)c1ccc(Cl)cc1",
    "readout units": "%",
    "viability at 48 h": 100
  },
  {
    "mol": "C/C(=N\\NC(=O)COc1cccc2cccnc12)c1ccccc1",
    "readout units": "%",
    "viability at 48 h": 100
  },
  {
    "mol": "C/C(=N\\NC(=O)COc1cccc2cccnc12)c1ccco1",
    "readout units": "%",
    "viability at 48 h": 100
  },
  {
    "mol": "C/C(=N\\NC(=O)COc1cccc2cccnc12)c1cccs1",
    "readout units": "%",
    "viability at 48 h": 88
  },
  {
    "mol": "Cc1ncc([N+](=O)[O-])n1CCO",
    "readout units": "%",
    "viability at 48 h": 100
  },
  {
    "mol": "C/C(=N\\NC(=O)COc1cccc2cccnc12)c1ccc(Br)cc1",
    "readout units": "%",
    "viability at 48 h": 100
  },
  {
    "mol": "Clc1ccc(-c2c[se]nn2)cc1",
    "readout units": "%",
    "viability at 48 h": 57
  },
  {
    "mol": "C/C(=N\\NC(=O)COc1cccc2cccnc12)c1ccccn1",
    "readout units": "%",
    "viability at 48 h": 100
  }
]

Which viability at 48 h reading was recorded for the compound Brc1ccc(-c2csnn2)cc1 ?
68

====

Assay: Cytotoxicity against human MCF7 cells assessed as cell viability at 1.56 to 50 uM after 48 hrs by MTT assay
Type: cell-based
Conditions: read-out: Activity
recorded endpoint: viability at 48 h, up to 50 µM (%)
Kindly answer with a numeric value in %, unit omitted.

Tell me the measured viability at 48 h, up to 50 µM of Clc1ccc(-c2c[se]nn2)cc1 , please.
66
